test-summary: NCI Yeast Anticancer Drug Screen. Data for the sgs1 mgt1 strain (AID 161);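 further: 0% = growth of cultures given vehicle only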
conditions-used: S. cerevisiae sgs1 mgt1 strain, at 50.0 µM, stronger effect = higher value
Compounds without any hit were thinned out: in the full panel of roughly 79,000, 15% have a hit.
measured-attribute: growth inhibition (%)
Numbers only, in %.

Examples with answers:
compound	unit-label	growth inhibition
Nc1nccc(NCCCCCCNc2ccnc(N)n2)n1	%	80
OCc1ccccc1CC(O)(c1ccccc1)c1ccccc1	%	95.8

In the following, a different compound is considered.
(Q) Consider the compound CN1C(=O)C2N(C(=O)C1(C)S)c1ccccc1C2(C)C (stereo not drawn) and give its measured growth inhibition.
(A) 15.7

* * *

test-summary: NCI Yeast Anticancer Drug Screen. Data for the mec2-1 strain (AID 157)
conditions-used: S. cerevisiae mec2-1 strain, at 50.0 µM, stronger effect = higher value
Description: Growth inhibition of yeast strains with defined genetic alterations is measured as a screen for potential anti-cancer activity. Selected strains with alterations in DNA damage repair or cell cycle control were exposed to compounds and growth inhibition was measured relative to vehicle treated controls. The strain used in this assay is mec2-1
This is part of a sample that, as a whole, favours compounds with a hit. Of some 79,000 tested, about 15% had one in any assay.
measured-attribute: growth inhibition (%)
Numbers only, in %.

Solved cases (2 shown):
compound	measured-attribute	quantitative-result
CCCCCCC(=O)OCc1ccc(-c2ccccc2)cc1	growth inhibition	99.4
CN(C)c1ccc(C(=C2C=CC(=[N+](C)C)C=C2)c2ccc(N(C)C)cc2)cc1 (tested in a mixture with another compound)	growth inhibition	88

Switching to the query record.
(Q) So what's the measured growth inhibition for this one? `Cn1c2c(c3ccccc31)CCN1C[C@@H]3CCCC[C@H]3C[C@@H]21`
(A) 8.8

* * *

For each record, write down the corresponding growth inhibition.
test-summary: NCI Yeast Anticancer Drug Screen. Data for the bub3 strain (AID 167)
conditions-used: S. cerevisiae bub3 mutant strain, at 5.0 µM (retest, dose inferred, filed as 0.5), stronger effect = higher value
Compounds without any hit were thinned out: in the full panel of roughly 79,000, 15% have a hit. Activity calls are given as the source filed them. No stated cut-off is given here; in the data, active means growth inhibition above about 70%; inactive means the rest.

Illustrative cases are given below, each with its answer.
molecule	growth inhibition
Cc1occc1C(=S)Nc1ccc(Cl)c(C(=O)OCC2CC2)c1	-3% (inactive)
CC(=O)Nc1ccc(-c2cnc3ccccc3c2)cc1	-5% (inactive)
O=C1OC(c2ccccc2)CC1Cc1ccccc1 (stereo not given)	-2% (inactive)
O=Nc1c(O)ccc2ccccc12.[Fe].[Na+]	13% (inactive)

(Q) What value of growth inhibition has been reported for the following molecule? `Cc1c(CCl)c(=O)oc2c(C)c3occ(CCl)c(=O)c3cc12`
(A) 28% (inactive)

* * *

test-summary: NCI Yeast Anticancer Drug Screen. Data for the rad50 strain (AID 155);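 further: 0% = growth of vehicle-only cultures of the same strain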
conditions-used: S. cerevisiae rad50 strain growth inhibition; at 5.0 µM (retest, dose inferred, filed as 0.5); stronger effect = higher value
Compounds without any hit were thinned out: in the full panel of roughly 79,000, 15% have a hit.
measured-attribute: growth inhibition (%)
One number for each entry, in %.

compound	measured-attribute	quantitative-result
OCC(O)C(OC1OC(CO)C(O)C(O)C1O)C(O)C(/C=N/Nc1ccc(Br)cc1)=N/Nc1ccc(Br)cc1 (configuration not stated)	growth inhibition	-3
CC(=O)OC1(C)C(=C(Cl)Cl)C2c3ccccc3C1c1ccccc12 (configuration not stated)	growth inhibition	0
COc1ccc(OC)c(C(Cc2ccnc3ccccc23)Cc2ccnc3ccccc23)c1	growth inhibition	1
CC1=C(/C=C/C(C)=N/NC(N)=S)C(C)(C)CCC1	growth inhibition	24
CCN(CC)CCCNc1ncc(C)c2c1c1ccc3c(O)cccc3c1n2C	growth inhibition	22

Below is a list of compounds. For each, state its recorded growth inhibition.
1. CCOC(=O)C(C(C)=O)C1=C(Cl)C(=O)c2ccccc2C1=O (configuration not stated)
2. Nc1cc2c(c[n+](CCCCCCCCCC[n+]3cc4c5ccccc5c(N)cc4c4ccccc43)c3ccccc23)c2ccccc12
3. O=C(Nc1ccc(F)c([N+](=O)[O-])c1)NC(Cc1ccccc1)c1ccccc1 (configuration not stated)
4. COC1(CO)C(=O)N(C)CC(=O)N1C (configuration not stated)
5. CC(N)C(O)c1ccc2ccc3ccccc3c2c1 (configuration not stated)
6. CC[N+]1=C(/C=C\c2cc(C)c3cccnc3c2O)C(C)(C)c2ccccc21
7. CCCCCCCCCCCCCC(=O)N1CCOCC1
8. CC1CC[N-]CC1.CC1CC[N-]CC1.CC1CC[N-]CC1.CC1CC[N-]CC1.CS(C)=O.CS(C)=O.[Cl-].[Cl-].[Cl-].[Cl-].[Pt+4].[Rh+3]

(A)
1. 94
2. 20
3. -11
4. 1
5. -35
6. 0
7. 0
8. 65

For each of the items listed, what is its growth inhibition?
1. CCOC(C)c1ccccc1 (configuration not stated)
2. Cc1c(C)n(-c2ccccc2)c2nc(S(C)(=O)=O)nc(S(C)(=O)=O)c12
3. CN(C)c1ccc2c(c1)Cc1cc(NC(=O)/C=C/C(=O)O)ccc1-2
4. N#CSCc1ccc(CSC#N)c(Cl)c1

(A)
1: 39; 2: 1; 3: -31; 4: 10
